Hey, just so you know, these numbers are from ChEMBL document CHEMBL1961873.

# Test system: Epidermal growth factor receptor (Homo sapiens), P00533 [L858R]
# Sequence (P00533 whole entry L858R): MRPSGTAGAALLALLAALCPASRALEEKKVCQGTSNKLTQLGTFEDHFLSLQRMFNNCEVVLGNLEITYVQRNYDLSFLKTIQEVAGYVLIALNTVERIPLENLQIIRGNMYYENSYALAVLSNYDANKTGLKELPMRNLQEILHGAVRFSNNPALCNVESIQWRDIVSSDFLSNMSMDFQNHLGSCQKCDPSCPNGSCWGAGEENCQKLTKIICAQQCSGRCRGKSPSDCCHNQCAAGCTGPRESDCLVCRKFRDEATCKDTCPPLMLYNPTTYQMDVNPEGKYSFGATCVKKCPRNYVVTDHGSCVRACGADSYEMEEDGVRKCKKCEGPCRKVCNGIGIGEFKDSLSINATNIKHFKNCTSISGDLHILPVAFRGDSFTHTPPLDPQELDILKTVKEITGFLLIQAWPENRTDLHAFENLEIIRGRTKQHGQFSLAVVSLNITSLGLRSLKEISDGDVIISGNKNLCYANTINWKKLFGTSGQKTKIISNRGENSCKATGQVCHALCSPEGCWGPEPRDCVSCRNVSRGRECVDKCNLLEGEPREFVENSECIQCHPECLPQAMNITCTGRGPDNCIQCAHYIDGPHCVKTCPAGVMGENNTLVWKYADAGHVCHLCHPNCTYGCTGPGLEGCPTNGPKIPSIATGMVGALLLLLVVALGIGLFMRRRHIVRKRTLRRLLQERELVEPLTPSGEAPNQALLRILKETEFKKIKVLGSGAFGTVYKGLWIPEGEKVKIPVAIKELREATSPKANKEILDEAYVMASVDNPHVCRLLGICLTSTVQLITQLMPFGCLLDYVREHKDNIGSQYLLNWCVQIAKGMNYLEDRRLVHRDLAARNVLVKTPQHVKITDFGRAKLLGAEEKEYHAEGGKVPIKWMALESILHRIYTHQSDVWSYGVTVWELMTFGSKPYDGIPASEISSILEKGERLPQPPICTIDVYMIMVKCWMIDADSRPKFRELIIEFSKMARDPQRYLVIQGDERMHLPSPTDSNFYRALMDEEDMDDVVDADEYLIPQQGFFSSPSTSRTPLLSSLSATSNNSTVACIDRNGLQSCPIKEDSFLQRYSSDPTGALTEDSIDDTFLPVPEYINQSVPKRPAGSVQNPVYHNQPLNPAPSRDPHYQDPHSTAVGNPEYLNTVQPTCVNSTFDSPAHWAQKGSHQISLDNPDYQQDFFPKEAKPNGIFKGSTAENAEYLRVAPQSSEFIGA
# TEST CONTEXT: at 0.1 µM
Give measured inhibition for each item. Keep answers brief.
Give bare numbers, in %.

Qu. Give inhibition (Epidermal growth factor receptor (Homo sapiens), P00533 [L858R]) of the following compound: c1ccc(-c2n[nH]cc2-c2ccnc(-c3ccc(OCCN4CCOCC4)cc3)c2)nc1
Ans. -2.03

Please state, for each entry, its recorded inhibition.
1. Cc1ccc(C(=O)NC(C)C)cc1-c1ccc(C(=O)NCC2CC2)cc1
2. CN(c1ccc(NC(=O)Nc2c(Cl)cccc2Cl)cc1)c1ccnc(Nc2cccc(CS(C)(=O)=O)c2)n1

Ans.
[-1.62, 1.91]

Please state, for each entry, its recorded inhibition.
1. O=C(Nc1n[nH]c2cc(-c3ccccc3)ccc12)C1CC1
2. Cc1nnc(-c2ccc(C)c(-c3ccc(C(=O)NCc4ccc(Cl)cc4)cc3)c2)o1
3. Fc1ccc(-c2ncn(C3CCNCC3)c2-c2ccnc(Oc3ccc4c(c3)OCO4)n2)cc1
4. C#Cc1cccc(Nc2ncnc3ccc(OCCCCNCCS(C)(=O)=O)cc23)c1
5. COc1cc2ncn(-c3cc(OCCc4ccccc4)c(C(N)=O)s3)c2cc1OC

Ans.
1: 2.84; 2: 1.36; 3: 4.4; 4: 96.8; 5: 2.45

Please state, for each entry, its recorded inhibition.
1. COC(=O)Nc1nc2ccc(Sc3ccc(NC(=O)Nc4cc(C(F)(F)F)ccc4F)cc3)cc2[nH]1
2. NC(=O)c1cc(-c2ccc(F)cc2)cc(-c2ccncc2)c1N

Ans.
1: -0.44; 2: 5.96
